- Test system: LTR34fm
- Protocol description: Fluorescence anisotropy titration of LTR34fm by peptide
- Format: binding, HIV-1
- Run conditions: LTR34fm 20 nM, curve fitting, ±10% uncertainty, 40 mM sodium phosphate, 0.5 mM EDTA, pH 6.0, 5°C, read-out: Kd2 (low affinity, non-specific site)
Endpoint: Kd
Reply with the number and its unit after it.

Query: Output Kd of YG149VIESMNK156ELKKIIGQVRDQ 168 AEHLKTAVQMAVFIHNK 185KA [HTHi]
Reply: 1900 nM

* * *

- Test system: CRE (cAMP response element)
- Protocol description: Fluorescence anisotropy titration of CRE (negative control sequence) by peptide
- Run conditions: CRE 20 nM, curve fitting, ±10% uncertainty, 40 mM sodium phosphate, 0.5 mM EDTA, pH 6.0, 5°C, read-out: Kd (non-specific binding)
Endpoint: pKd
Scale: pKd equals -log10([C]), with [C] in mol/L.

Query: Output pKd of YG149VIESMNK156ELKKIIGQVRDQ 168 AEHLKTAVQMAVFIHNK 185KA [HTHi]
Reply: 5.18
